NR activity before EDTA treatment, % of control for assorted compounds
- tested.target: purified A. niger NR (E.C. 1.6.6.2) (Aspergillus niger)
- Construct: purchased Sigma-Aldrich Co. (St. Louis, Mo.)
- Sequence (P36858 1-867): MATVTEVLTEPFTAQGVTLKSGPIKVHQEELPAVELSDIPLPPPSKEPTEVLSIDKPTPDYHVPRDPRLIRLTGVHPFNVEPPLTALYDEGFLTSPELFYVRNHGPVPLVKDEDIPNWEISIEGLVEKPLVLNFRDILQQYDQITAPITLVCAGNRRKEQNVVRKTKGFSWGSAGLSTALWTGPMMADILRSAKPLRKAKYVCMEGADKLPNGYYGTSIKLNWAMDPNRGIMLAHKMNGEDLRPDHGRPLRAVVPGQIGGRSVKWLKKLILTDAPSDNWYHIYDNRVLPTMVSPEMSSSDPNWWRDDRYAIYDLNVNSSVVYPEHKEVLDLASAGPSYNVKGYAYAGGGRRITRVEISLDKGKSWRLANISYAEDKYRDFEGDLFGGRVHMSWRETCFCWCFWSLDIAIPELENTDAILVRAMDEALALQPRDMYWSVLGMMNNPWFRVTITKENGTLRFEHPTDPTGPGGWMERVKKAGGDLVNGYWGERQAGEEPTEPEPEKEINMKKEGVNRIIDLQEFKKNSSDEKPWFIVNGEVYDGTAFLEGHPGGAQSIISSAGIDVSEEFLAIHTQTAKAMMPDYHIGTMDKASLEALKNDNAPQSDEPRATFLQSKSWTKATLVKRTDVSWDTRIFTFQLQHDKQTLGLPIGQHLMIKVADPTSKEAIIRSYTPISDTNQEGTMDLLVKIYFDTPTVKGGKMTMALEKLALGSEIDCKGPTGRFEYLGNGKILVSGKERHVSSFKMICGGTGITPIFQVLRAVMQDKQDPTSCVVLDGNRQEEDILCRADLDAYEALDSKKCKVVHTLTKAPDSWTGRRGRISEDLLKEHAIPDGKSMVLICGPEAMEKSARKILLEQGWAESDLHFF
- assay.details: Regeneration of metal inactivated NR activity by 10 mM EDTA
- Assay type: biochemical
- experimental.conditions: 100 μM metal, five minutes, 25° C., 10 mM KNO3
metric.name: NR activity before EDTA treatment, % of control

| smiles.text | tested.target | reported.value |
| --- | --- | --- |
| [Pb+2] | purified A. niger NR (E.C. 1.6.6.2) (Aspergillus niger) | 1.3% ± |
| [Cu+2] | purified A. niger NR (E.C. 1.6.6.2) (Aspergillus niger) | 1.0% ± 0.3% |
| [Cd+2] | purified A. niger NR (E.C. 1.6.6.2) (Aspergillus niger) | 2.7% ± |
| [Zn+2] | purified A. niger NR (E.C. 1.6.6.2) (Aspergillus niger) | 6.6% ± |
| [Cr+3] | purified A. niger NR (E.C. 1.6.6.2) (Aspergillus niger) | 5.7% ± 10% |

====

- tested.target: purified A. niger NR (E.C. 1.6.6.2) (Aspergillus niger)
- Construct: purchased Sigma-Aldrich Co. (St. Louis, Mo.)
- Sequence (P36858 1-867): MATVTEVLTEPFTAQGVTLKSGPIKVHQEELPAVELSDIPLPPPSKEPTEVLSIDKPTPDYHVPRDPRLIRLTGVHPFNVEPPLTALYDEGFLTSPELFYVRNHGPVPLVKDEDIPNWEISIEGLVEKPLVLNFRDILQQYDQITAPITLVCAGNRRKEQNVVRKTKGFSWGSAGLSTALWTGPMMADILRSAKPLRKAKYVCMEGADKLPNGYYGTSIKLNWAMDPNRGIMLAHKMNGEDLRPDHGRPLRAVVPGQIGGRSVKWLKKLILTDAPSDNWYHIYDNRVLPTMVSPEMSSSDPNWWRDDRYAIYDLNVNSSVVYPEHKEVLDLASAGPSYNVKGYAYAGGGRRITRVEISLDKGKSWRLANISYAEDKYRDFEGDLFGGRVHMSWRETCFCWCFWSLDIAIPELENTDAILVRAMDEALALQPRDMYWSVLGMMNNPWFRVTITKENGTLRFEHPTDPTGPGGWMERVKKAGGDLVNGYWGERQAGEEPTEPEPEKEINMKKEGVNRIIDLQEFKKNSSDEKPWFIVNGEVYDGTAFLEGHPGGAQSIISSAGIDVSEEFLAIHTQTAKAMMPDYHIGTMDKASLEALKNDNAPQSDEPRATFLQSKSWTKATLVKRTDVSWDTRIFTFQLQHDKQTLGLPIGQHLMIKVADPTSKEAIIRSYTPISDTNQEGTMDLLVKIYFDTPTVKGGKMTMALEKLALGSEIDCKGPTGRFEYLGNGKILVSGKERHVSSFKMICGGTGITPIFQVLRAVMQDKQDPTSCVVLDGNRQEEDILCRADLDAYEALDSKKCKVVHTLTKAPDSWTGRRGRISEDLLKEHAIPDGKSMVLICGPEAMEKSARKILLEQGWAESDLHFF
- assay.details: Regeneration of metal inactivated NR activity by 10 mM EDTA
- Type: biochemical
- experimental.conditions: 100 μM metal five minutes, then 10 mM EDTA
metric.name: NR activity after EDTA treatment, % of control

| smiles.text | reported.value |
| --- | --- |
| [Cr+3] | 4.3% ± 1.9% |
| [Zn+2] | 54% ± |
| [Cu+2] | 5.1% ± 1.5% |
| [Cd+2] | 28% ± |
| [Pb+2] | 40% ± |

====

- tested.target: purified A. niger NR (E.C. 1.6.6.2) (Aspergillus niger, UniProt P36858)
- Construct: purchased Sigma-Aldrich Co. (St. Louis, Mo.)
- assay.details: Regeneration of metal inactivated NR activity by 10 mM EDTA
- Type: biochemical
- experimental.conditions: 100 μM metal, 10 mM EDTA
metric.name: restoration of NR activity by EDTA after metal exposure

| smiles.text | tested.target | reported.value |
| --- | --- | --- |
| [Cd+2] | purified A. niger NR (E.C. 1.6.6.2) (Aspergillus niger, UniProt P36858) | partially restored |
| [Pb+2] | purified A. niger NR (E.C. 1.6.6.2) (Aspergillus niger, UniProt P36858) | partially restored |
| [Zn+2] | purified A. niger NR (E.C. 1.6.6.2) (Aspergillus niger, UniProt P36858) | partially restored |
